Cited source for all entries: patent US20030040485A1

# System: β1-adrenoceptor (right atrium)
# assay.notes: β1-adrenoceptor antagonism, spontaneously beating right atrium, pA2 vs L-isoproterenol
# cond: right atrium; Schild plot; mean ± SEM of six to eight experiments
Everything with β1 pA2 value, Right atrium lower than 7 is Not satisfied; everything else, including exactly 7, is Satisfied.

INSERT INTO measurements (compound, label_value) VALUES
  ('COc1cc(CO)ccc1OCC(O)CNC(C)(C)C (stereo not shown)', 'Not satisfied'),
  ('CCOC(=O)CCc1ccc(OCC(O)CNCCOc2ccccc2OC)cc1 (stereo not shown)', 'Not satisfied'),
  ('CCOC(=O)C(CCc1ccccc1)NC(C)C(=O)N1CCCC1C(=O)OCc1ccc(OCC(O)CNC(C)(C)C)c(OC)c1 (stereo not shown)', 'Not satisfied'),
  ('CC(CCc1ccccc1)NCC(O)c1ccc(O)c(C(N)=O)c1 (stereo not shown) [labetalol, reference compound]', 'Satisfied'),
  ('COc1ccccc1OCCNCC(O)COc1ccc(CO)cc1OC (stereo not shown)', 'Not satisfied'),
  ('CC(C)NCC(O)COc1ccc(CC(N)=O)cc1 (stereo not shown) [atenolol, reference compound]', 'Satisfied'),
  ('CCOC(=O)C(CCc1ccc(OCC(O)CNCCOc2ccccc2OC)cc1)NC(C)C(=O)N1CCCC1C(=O)O (mixture of isomers)', 'Not satisfied');
